Source listed as patent US20250270328A1.

So I've got a bunch of binders here, and I need their koff values.
Target: T1, human KLRB1 protein extracellular domain (ECD) (human, UniProt Q12918 67-225)
T1 construct: range 67-225; The ELISA and SPR text says only 'human KLRB1 ECD'; also called human KLRB1 ECD; CD161
T1 sequence (looked up): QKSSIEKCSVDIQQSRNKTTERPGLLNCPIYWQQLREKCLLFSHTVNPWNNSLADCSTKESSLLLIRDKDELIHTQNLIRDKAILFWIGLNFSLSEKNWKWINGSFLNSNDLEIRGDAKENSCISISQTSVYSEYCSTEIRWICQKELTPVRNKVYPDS
Assay: SPR, human KLRB1 ECD; format not stated
Answer format: value, then unit.

Solved entries:
BINDER	MEASURED ATTRIBUTE	RESULT
10A3D6C109Chum2.2 (antibody, V domains shown, Humanized variant of 10A3D6 made by CDR grafting) VH: QVQLVQSGAEVKKPGASVKVSCKASGYSFTGYTMNWVRQAPGQNLEWIGLINPNTGGTYYNQKFKDRVTLTVDTSISTAYMELSRLRSDDTAVYYCARLGDNYRGYFDCWGQGTTVTVSS VL: DIQLTQSPSFLSASVGDRVTITCKASQDVGTAVVWYQQKPGKAPKLLIDWASIRHTGVPSRFSGSGSGTEFTLTISSLQPEDFADYFCQQYSTYLYTFGGGTKLEIK	koff	9.54e-05 s⁻¹
10A3D6C109Chum5.5 (antibody, V domains shown, Humanized variant of 10A3D6 made by CDR grafting) VH: QVQLVQSGAEVKKPGASVKVSCKASGYSFTGYTMNWVRQAPGQNLEWMGLINPNTGGTYYNQKFKDRVTLTVDTSISTAYMELSRLRSDDTVVYYCARLGDNYRGYFDCWGQGTLVTVSS VL: EIVMTQSPATLSVSPGERATLSCKASQDVGTAVVWYQQKPGQAPRLLIDWASIRHTGIPARFSGSGSGTEFTLTISSLQSEDFAVYYCQQYSTYLYTFGGGTKVEIK	koff	0.000139 s⁻¹
10A3D6C109Chum5.1 (antibody, V domains shown, Humanized variant of 10A3D6 made by CDR grafting) VH: QVQLVQSGAEVKKPGASVKVSCKASGYSFTGYTMNWVRQAPGQNLEWMGLINPNTGGTYYNQKFKDRVTLTVDTSISTAYMELSRLRSDDTVVYYCARLGDNYRGYFDCWGQGTLVTVSS VL: DIQLTQSPSFLSASVGDRVTITCKASQDVGTAVVWYQQKPGKAPKLLIYWASIRHTGVPSRFSGSGSGTEFTLTISSLQPEDFATYYCQQYSTYLYTFGGGTKLEIK	koff	0.0196 s⁻¹
10A3D6C109Chum3.2 (antibody, V domains shown, Humanized variant of 10A3D6 made by CDR grafting) VH: QVQLVQSGAEVKKPGASVKVSCKASGYSFTGYTMNWVRQAHGQNLEWIGLINPNTGGTYYNQKFKDRVTLTVDTSISTAYMELSRLRSDDTAVYYCARLGDNYRGYFDCWGQGTTVTVSS VL: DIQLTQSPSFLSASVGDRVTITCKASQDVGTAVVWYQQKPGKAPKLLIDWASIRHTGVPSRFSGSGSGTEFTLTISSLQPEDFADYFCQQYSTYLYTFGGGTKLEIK	koff	0.000112 s⁻¹
10A3D6C109Chum2.1 (antibody, V domains shown, Humanized variant of 10A3D6 made by CDR grafting) VH: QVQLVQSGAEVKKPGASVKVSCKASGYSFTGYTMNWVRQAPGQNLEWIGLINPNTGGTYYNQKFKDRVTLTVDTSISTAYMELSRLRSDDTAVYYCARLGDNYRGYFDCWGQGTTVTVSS VL: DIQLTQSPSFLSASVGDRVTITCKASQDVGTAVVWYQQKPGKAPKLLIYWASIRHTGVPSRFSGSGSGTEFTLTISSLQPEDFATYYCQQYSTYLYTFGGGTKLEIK	koff	0.00408 s⁻¹
10A3D6C109Chum4.3 (antibody, V domains shown, Humanized variant of 10A3D6 made by CDR grafting) VH: QVQLVQSGAEVKKPGASVKVSCKASGYSFTGYTMNWVRQAHGQNLEWIGLINPNTGGTYYNQKFKDRATLTVDTSISTAYMELSRLRSDDTAVYYCARLGDNYRGYFDCWGQGTTVTVSS VL: DIQLTQSPSFLSASVGDRVTITCKASQDVGTAVVWYQQTPGKAPKLLIDWASIRHTGVPSRFSGSGSGTEFTLTISSLQPEDFADYFCQQYSTYLYTFGGGTKLEIK	koff	0.000109 s⁻¹

Would you mind listing koff for each of the following binders?
1. 10A3D6C109Chum4.5 (antibody, V domains shown, Humanized variant of 10A3D6 made by CDR grafting) VH: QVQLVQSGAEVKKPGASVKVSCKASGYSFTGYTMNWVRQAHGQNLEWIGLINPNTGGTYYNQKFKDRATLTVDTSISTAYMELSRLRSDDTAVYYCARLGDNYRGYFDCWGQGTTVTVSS VL: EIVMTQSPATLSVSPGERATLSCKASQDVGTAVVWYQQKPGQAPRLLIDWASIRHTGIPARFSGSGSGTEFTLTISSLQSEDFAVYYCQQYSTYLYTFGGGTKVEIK
2. 10A3D6C109Chum3.3 (antibody, V domains shown, Humanized variant of 10A3D6 made by CDR grafting) VH: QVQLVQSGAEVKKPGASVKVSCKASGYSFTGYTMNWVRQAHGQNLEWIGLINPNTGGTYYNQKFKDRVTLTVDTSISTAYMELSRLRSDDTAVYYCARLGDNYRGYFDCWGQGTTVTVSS VL: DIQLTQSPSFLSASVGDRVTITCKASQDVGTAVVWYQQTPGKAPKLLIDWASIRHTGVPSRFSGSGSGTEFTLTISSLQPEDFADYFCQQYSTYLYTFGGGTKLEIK
3. 10A3D6C109Chum1.1 (antibody, V domains shown, Humanized variant of 10A3D6 made by CDR grafting) VH: QVQLVQSGAEVKKPGASVKVSCKASGYSFTGYTMNWVRQAPGQGLEWMGLINPNTGGTYYNQKFKDRVTMTRDTSISTAYMELSRLRSDDTAVYYCARLGDNYRGYFDCWGQGTTVTVSS VL: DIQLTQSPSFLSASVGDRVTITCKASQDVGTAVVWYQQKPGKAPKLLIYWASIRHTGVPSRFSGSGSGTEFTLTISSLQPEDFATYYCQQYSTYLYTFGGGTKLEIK
4. 10A3D6C109Chum5.3 (antibody, V domains shown, Humanized variant of 10A3D6 made by CDR grafting) VH: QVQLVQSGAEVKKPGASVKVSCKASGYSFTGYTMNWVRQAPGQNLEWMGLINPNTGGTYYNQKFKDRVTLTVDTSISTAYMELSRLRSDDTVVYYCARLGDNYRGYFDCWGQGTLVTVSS VL: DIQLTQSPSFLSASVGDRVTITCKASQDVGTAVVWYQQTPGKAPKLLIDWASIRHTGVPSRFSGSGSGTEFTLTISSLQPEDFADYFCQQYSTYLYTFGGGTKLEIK

a:
1. 0.000107 s⁻¹
2. 9.89e-05 s⁻¹
3. 0.00296 s⁻¹
4. 0.000134 s⁻¹
